Where these numbers come from: patent US20230381333A1

molecular target: human GLP-1 receptor (human, UniProt P43220 24-463); experiment: cell-based or functional assay
Bridge positions count the residues as written; N and C are the ends. Square brackets hold non-standard residues; d marks the D form. Ends that are not written are not given here. * marks the point of attachment. Acetyl(2-(4-imidazolyl)) = O=C(Cc1c[nH]cn1)*; Aib = CC(C)(N)C(=O)O
Rule: In vitro activity compared to native-type peptide (%), vs GLP-1 below 20% gives TRUE, anything at or above gives FALSE.

Ask | Item H[Aib]QGTFTSDYSKYLDECRQKEFVQWLLNGGPSSGAPPPSG (bridge 16-20) [triple agonist of SEQ ID NO: 37] : In vitro activity compared to native-type peptide (%), vs GLP-1 beneath 20%, strictly?
Reply | FALSE

Ask | Below 20% on In vitro activity compared to native-type peptide (%), vs GLP-1? Entry H[Aib]QGTFTSDVSSYLDGQAAKEFVAWLLKGC [triple agonist of SEQ ID NO: 6]
Reply | TRUE

Ask | Lab note: In vitro activity compared to native-type peptide (%), vs GLP-1 threshold 20%. Does this binder come in strictly under it? HGQGTFTSDCSKQLDGQAAQEFVAWLLAGGPSSGAPPPS [triple agonist of SEQ ID NO: 44]
Reply | TRUE

Ask | Hello, is In vitro activity compared to native-type peptide (%), vs GLP-1 of the following binder strictly smaller than 20%? {Acetyl(2-(4-imidazolyl))}-[Aib]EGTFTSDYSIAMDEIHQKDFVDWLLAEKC (bridge 15-19) [triple agonist of SEQ ID NO: 91]
Reply | FALSE

Ask | Answer whether the binder {Acetyl(2-(4-imidazolyl))}-[Aib]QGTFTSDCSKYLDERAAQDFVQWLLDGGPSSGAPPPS [triple agonist of SEQ ID NO: 63] has In vitro activity compared to native-type peptide (%), vs GLP-1 strictly less than 20%
Reply | TRUE

Next:
Ask | Problem: For the binder Y[Aib]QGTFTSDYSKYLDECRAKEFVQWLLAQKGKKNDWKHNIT (bridge 16-20) [triple agonist of SEQ ID NO: 23] , is In vitro activity compared to native-type peptide (%), vs GLP-1 under 20%?
Reply | TRUE

Ask | Please state whether In vitro activity compared to native-type peptide (%), vs GLP-1 is below 20% for H[Aib]QGTFTSDKSKYLDERACQDFVQWLLDGGPSSGAPPPS [triple agonist of SEQ ID NO: 40]
Reply | FALSE

Ask | Consider the binder H[Aib]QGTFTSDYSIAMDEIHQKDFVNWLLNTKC (bridge 16-20) [triple agonist of SEQ ID NO: 35] . Is its In vitro activity compared to native-type peptide (%), vs GLP-1 strictly less than 20%?
Reply | TRUE

Ask | In the record for Y[Aib]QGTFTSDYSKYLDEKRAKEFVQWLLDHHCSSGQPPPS (bridge 16-20) [triple agonist of SEQ ID NO: 43] , is In vitro activity compared to native-type peptide (%), vs GLP-1 less than 20%?
Reply | TRUE
